Tested on: 317291-083-R-J1-PDC complex spheroids, viability
METHOD: Anticancer human tumor 317291-083-R-J1-PDC patient-derived soft tissue sarcoma cell line growth inhibition [GQUAD]
EXPERIMENTAL_PARAMETERS: second compound 0.316 µM; first compound 0.316 µM; stronger effect = lower value
# Condition met = viability, T/C below 50% (exclusive); Condition not met = viability, T/C at/above 50%

Say whether its viability, T/C is strictly beneath 50%. Entry: CC(C)n1c(=O)n(C)c2cnc3cc(F)c(-c4ccc(OCCCN5CCCCC5)nc4)cc3c21 + CN(C)c1ccc(Nc2c3ccc(NC(=O)CCN4CCCC4)cc3nc3cc(NC(=O)CCN4CCCC4)ccc23)cc1
Condition not met

Say whether its viability, T/C is strictly beneath 50%. Entry: COc1ccc([C@@H](O)c2cc(-c3ncnc4cc(N5CCOCC5)ccc34)c(F)cc2Cl)nn1 + CN(C)c1ccc(Nc2c3ccc(NC(=O)CCN4CCCC4)cc3nc3cc(NC(=O)CCN4CCCC4)ccc23)cc1
Condition not met

Say whether its viability, T/C is strictly beneath 50%. Entry: C#Cc1c(F)ccc2cc(O)cc(-c3ncc4c(N5CC6CCC(C5)N6)nc(OCC56CCCN5CC(F)C6)nc4c3F)c12 (configuration not stated) + CN(C)c1ccc(Nc2c3ccc(NC(=O)CCN4CCCC4)cc3nc3cc(NC(=O)CCN4CCCC4)ccc23)cc1
Condition not met

* * *

Tested on: 317291-083-R-J1-PDC complex spheroids, viability
METHOD: Anticancer human tumor 317291-083-R-J1-PDC cell line growth inhibition [GQUAD];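 note: spheroids exposed to compounds for one week before readout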
EXPERIMENTAL_PARAMETERS: curve of first compound; second compound 0.0316 µM
Let's look at some compounds and their measured IC50.

Worked examples follow.
• CCc1c2c(nc3ccc(O)cc13)-c1cc3c(c(=O)n1C2)COC(=O)[C@]3(O)CC + Cc1cnc(CNC(=O)c2c(=O)c3ccc(N4CCCN(C)CC4)nc3n3c2sc2ccccc23)cn1 = < 0.000999 µM
• C=CC(=O)N1CCN(c2nc(=O)n(-c3c(C)ccnc3C(C)C)c3nc(-c4c(O)cccc4F)c(F)cc23)C(C)C1 (stereo unspecified) + CN(C)c1ccc(Nc2c3ccc(NC(=O)CCN4CCCC4)cc3nc3cc(NC(=O)CCN4CCCC4)ccc23)cc1 = > 10 µM
• C#Cc1c(F)ccc2cc(O)cc(-c3ncc4c(N5CC6CCC(C5)N6)nc(OCC56CCCN5CC(F)C6)nc4c3F)c12 (stereo unspecified) + Cc1cnc(CNC(=O)c2c(=O)c3ccc(N4CCCN(C)CC4)nc3n3c2sc2ccccc23)cn1 = > 10 µM
• CC(=O)O[C@H]1C(=O)[C@@]2(C)[C@H]([C@H](OC(=O)c3ccccc3)[C@]3(O)C[C@H](OC(=O)[C@H](O)[C@@H](NC(=O)c4ccccc4)c4ccccc4)C(C)=C1C3(C)C)[C@]1(OC(C)=O)CO[C@@H]1C[C@@H]2O + Cc1cnc(CNC(=O)c2c(=O)c3ccc(N4CCCN(C)CC4)nc3n3c2sc2ccccc23)cn1 = < 0.0316 µM
• Cn1ncnc1[C@H]1c2n[nH]c(=O)c3cc(F)cc(c23)N[C@@H]1c1ccc(F)cc1 + CN(C)c1ccc(Nc2c3ccc(NC(=O)CCN4CCCC4)cc3nc3cc(NC(=O)CCN4CCCC4)ccc23)cc1 = > 0.316 µM

Need IC50 of Cc1cccc(N(C)C(=O)C2C(O)CCN2c2nc(C)cc(C(F)(F)F)c2C#N)c1 (stereo unspecified) + CN(C)c1ccc(Nc2c3ccc(NC(=O)CCN4CCCC4)cc3nc3cc(NC(=O)CCN4CCCC4)ccc23)cc1 , thanks.
> 10 µM

* * *

Test system: 317291-083-R-J1-PDC complex spheroids, viability
METHOD: Anticancer human tumor 317291-083-R-J1-PDC cell line growth inhibition [GQUAD];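 note: spheroids exposed to compounds for one week before readout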;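 for viability, T/C: percent viability relative to DMSO vehicle wells taken as 100%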
EXPERIMENTAL_PARAMETERS: second compound 0.0316 µM; first compound 10 µM; stronger effect = lower value
Let's look at some compounds and their measured viability, T/C.

• Nc1ccn(C2OC(CO)C(O)C2(F)F)c(=O)n1 (stereo not drawn) + Cc1cnc(CNC(=O)c2c(=O)c3ccc(N4CCCN(C)CC4)nc3n3c2sc2ccccc23)cn1 = 6.85%
• O=C(NO)c1cnc(N2CCN(S(=O)(=O)c3ccc4ccccc4c3)CC2)nc1 + Cc1cnc(CNC(=O)c2c(=O)c3ccc(N4CCCN(C)CC4)nc3n3c2sc2ccccc23)cn1 = 0.08%
• COc1ccc([C@@H](O)c2cc(-c3ncnc4cc(N5CCOCC5)ccc34)c(F)cc2Cl)nn1 + Cc1cnc(CNC(=O)c2c(=O)c3ccc(N4CCCN(C)CC4)nc3n3c2sc2ccccc23)cn1 = 30.7%
• CC1COCCN1c1cc(-c2ccnn2C)c2ccnc(-c3ccn[nH]3)c2n1 (stereo not drawn) + Cc1[nH]c2ccc(F)cc2c1-c1nc2c3cccnc3c3ncccc3c2[nH]1 = 15.1%
• CC(=O)O[C@H]1C(=O)[C@@]2(C)[C@H]([C@H](OC(=O)c3ccccc3)[C@]3(O)C[C@H](OC(=O)[C@H](O)[C@@H](NC(=O)c4ccccc4)c4ccccc4)C(C)=C1C3(C)C)[C@]1(OC(C)=O)CO[C@@H]1C[C@@H]2O + CN(C)c1ccc(Nc2c3ccc(NC(=O)CCN4CCCC4)cc3nc3cc(NC(=O)CCN4CCCC4)ccc23)cc1 = 12.4%
• Cc1cccc(N(C)C(=O)C2C(O)CCN2c2nc(C)cc(C(F)(F)F)c2C#N)c1 (stereo not drawn) + Cc1cnc(CNC(=O)c2c(=O)c3ccc(N4CCCN(C)CC4)nc3n3c2sc2ccccc23)cn1 = 80.2%

Need viability, T/C of COc1cc(C2c3cc4c(cc3C(OC3OC5COC(C)OC5C(O)C3O)C3COC(=O)C23)OCO4)cc(OC)c1O (stereo not drawn) + Cc1cnc(CNC(=O)c2c(=O)c3ccc(N4CCCN(C)CC4)nc3n3c2sc2ccccc23)cn1 , thanks.
11.6%

Need viability, T/C of CC1COCCN1c1cc(C2(O)CC3CCC(C2)O3)c2cnn(-c3ccn[nH]3)c2n1 (stereo not drawn) + Cc1[nH]c2ccc(F)cc2c1-c1nc2c3cccnc3c3ncccc3c2[nH]1 , thanks.
3.15%

* * *

Let's look at some compounds and their measured viability, T/C.
Tested on: 317291-083-R-J1-PDC complex spheroids, viability
METHOD: Anticancer human tumor 317291-083-R-J1-PDC cell line growth inhibition [GQUAD];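 note: spheroids exposed to compounds for one week before readout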;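 for viability, T/C: percent viability relative to DMSO vehicle wells taken as 100%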
EXPERIMENTAL_PARAMETERS: second compound 3.16 µM; first compound 0.1 µM; stronger effect = lower value

Worked examples follow.
- CC(C)n1c(=O)n(C)c2cnc3cc(F)c(-c4ccc(OCCCN5CCCCC5)nc4)cc3c21 + CN(C)c1ccc(Nc2c3ccc(NC(=O)CCN4CCCC4)cc3nc3cc(NC(=O)CCN4CCCC4)ccc23)cc1: 12.2%
- O=c1[nH]cc(F)c(=O)[nH]1 + CN(C)c1ccc(Nc2c3ccc(NC(=O)CCN4CCCC4)cc3nc3cc(NC(=O)CCN4CCCC4)ccc23)cc1: 27.3%

Need viability, T/C of Nc1ccn(C2OC(CO)C(O)C2(F)F)c(=O)n1 (stereo not drawn) + Cc1cnc(CNC(=O)c2c(=O)c3ccc(N4CCCN(C)CC4)nc3n3c2sc2ccccc23)cn1 , thanks.
17.5%

* * *

Test system: 317291-083-R-J1-PDC complex spheroids, viability
METHOD: Anticancer human tumor 317291-083-R-J1-PDC cell line growth inhibition [GQUAD]; active = viability on the fitted dose curve at most 10% of control; inactive = the rest;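 note: spheroids exposed to compounds for one week before readout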
EXPERIMENTAL_PARAMETERS: second compound 10 µM; first compound 3.16 µM
Source text: DNA G-quadruplex Stabilizer Agents in Combinations in Complex Spheroids A high-throughput screen of multi-cell type tumor spheroids was designed to identify active combinations of DNA G-quadruplex stabilizer agents and targeted small molecules. […] Compounds. […] If the clinical Cmax for an agent had not been determined, the highest concentration tested was 10 microM. […]
Write down the outcome that applies. Available outcomes: active, inactive

Kindly provide the recorded test outcome for the following molecule: CC1COCCN1c1cc(C2(S(C)(=N)=O)CC2)nc(-c2ccnc3[nH]ccc23)n1 (stereo unspecified) + Cc1[nH]c2ccc(F)cc2c1-c1nc2c3cccnc3c3ncccc3c2[nH]1
inactive

Kindly provide the recorded test outcome for the following molecule: COc1cccc2c1C(=O)c1c(O)c3c(c(O)c1C2=O)CC(O)(C(=O)CO)CC3OC1CC(N)C(O)C(C)O1 (stereo unspecified) + Cc1cnc(CNC(=O)c2c(=O)c3ccc(N4CCCN(C)CC4)nc3n3c2sc2ccccc23)cn1
active

Kindly provide the recorded test outcome for the following molecule: COc1ncnc(C2CC2)c1-c1ncc2cnn(Cc3ccc(-c4nc(C(F)(F)F)cn4C(C)C)cc3)c2n1 + Cc1cnc(CNC(=O)c2c(=O)c3ccc(N4CCCN(C)CC4)nc3n3c2sc2ccccc23)cn1
active

Kindly provide the recorded test outcome for the following molecule: Nc1ccn(C2OC(CO)C(O)C2(F)F)c(=O)n1 (stereo unspecified) + Cc1[nH]c2ccc(F)cc2c1-c1nc2c3cccnc3c3ncccc3c2[nH]1
inactive

Kindly provide the recorded test outcome for the following molecule: O=C(NO)c1cnc(N2CCN(S(=O)(=O)c3ccc4ccccc4c3)CC2)nc1 + Cc1[nH]c2ccc(F)cc2c1-c1nc2c3cccnc3c3ncccc3c2[nH]1
active

Kindly provide the recorded test outcome for the following molecule: CC1COCCN1c1cc(-c2ccnn2C)c2ccnc(-c3ccn[nH]3)c2n1 (stereo unspecified) + CN(C)c1ccc(Nc2c3ccc(NC(=O)CCN4CCCC4)cc3nc3cc(NC(=O)CCN4CCCC4)ccc23)cc1
active

Kindly provide the recorded test outcome for the following molecule: CC1COCCN1c1cc(-c2ccnn2C)c2ccnc(-c3ccn[nH]3)c2n1 (stereo unspecified) + Cc1[nH]c2ccc(F)cc2c1-c1nc2c3cccnc3c3ncccc3c2[nH]1
inactive

Kindly provide the recorded test outcome for the following molecule: C=CCn1c(=O)c2cnc(Nc3ccc(N4CCN(C)CC4)cc3)nc2n1-c1cccc(C(C)(C)O)n1 + Cc1[nH]c2ccc(F)cc2c1-c1nc2c3cccnc3c3ncccc3c2[nH]1
active

Kindly provide the recorded test outcome for the following molecule: C=CC(=O)N1CCN(c2nc(=O)n(-c3c(C)ccnc3C(C)C)c3nc(-c4c(O)cccc4F)c(F)cc23)C(C)C1 (stereo unspecified) + Cc1cnc(CNC(=O)c2c(=O)c3ccc(N4CCCN(C)CC4)nc3n3c2sc2ccccc23)cn1
inactive

Kindly provide the recorded test outcome for the following molecule: CC(=O)O[C@H]1C(=O)[C@@]2(C)[C@H]([C@H](OC(=O)c3ccccc3)[C@]3(O)C[C@H](OC(=O)[C@H](O)[C@@H](NC(=O)c4ccccc4)c4ccccc4)C(C)=C1C3(C)C)[C@]1(OC(C)=O)CO[C@@H]1C[C@@H]2O + Cc1[nH]c2ccc(F)cc2c1-c1nc2c3cccnc3c3ncccc3c2[nH]1
inactive

Kindly provide the recorded test outcome for the following molecule: C=CCn1c(=O)c2cnc(Nc3ccc(N4CCN(C)CC4)cc3)nc2n1-c1cccc(C(C)(C)O)n1 + Cc1cnc(CNC(=O)c2c(=O)c3ccc(N4CCCN(C)CC4)nc3n3c2sc2ccccc23)cn1
active
